// data source = paper PMC6197089

- target_desc: 5-HT2B receptors (Homo sapiens, UniProt P41595)
- Construct: University of North Carolina Psychoactive Drug Screening Project (PDSP), contract testing
- Sequence (P41595 whole entry): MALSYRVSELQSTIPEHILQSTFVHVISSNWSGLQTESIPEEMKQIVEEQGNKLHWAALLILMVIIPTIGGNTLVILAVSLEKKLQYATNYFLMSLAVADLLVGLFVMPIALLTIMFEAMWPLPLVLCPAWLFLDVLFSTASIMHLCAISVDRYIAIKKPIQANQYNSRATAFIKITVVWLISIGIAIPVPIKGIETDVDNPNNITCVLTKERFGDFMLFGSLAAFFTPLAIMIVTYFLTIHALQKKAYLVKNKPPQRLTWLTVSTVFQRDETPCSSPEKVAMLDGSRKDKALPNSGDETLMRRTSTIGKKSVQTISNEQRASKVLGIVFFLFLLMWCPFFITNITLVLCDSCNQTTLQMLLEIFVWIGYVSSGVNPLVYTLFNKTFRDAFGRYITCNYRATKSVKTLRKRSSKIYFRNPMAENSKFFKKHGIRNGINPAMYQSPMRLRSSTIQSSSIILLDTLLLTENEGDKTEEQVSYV
- test_name: PDSP radioligand competition binding, 5-HT2B
- protocol_conditions: secondary binding assay, average of n = 3
property_measured: pKi
Would you please state pKi, meaning minus log10 of the concentration in mol/L, as a bare number?

Q. Quick one: pKi of FC(F)(F)c1ccc(N2CCN(Cc3ccc4c(c3)OCO4)CC2)cc1 [Compound 6, 4-TFMPP-3,4-MDBP] ?
A. 6.61

Q. Next record, please: FC(F)(F)c1ccc(N2CCN(Cc3cccc4c3OCO4)CC2)cc1 [Compound 3, 4-TFMPP-2,3-MD]
A. 6.06

Q. Also FC(F)(F)c1cccc(N2CCN(Cc3ccc4c(c3)OCO4)CC2)c1 [Compound 5, 3-TFMPP-3,4-MDBP] ?
A. 6.94

Q. Same thing, different compound: FC(F)(F)c1ccccc1N1CCN(Cc2ccc3c(c2)OCO3)CC1 [Compound 4, 2-TFMPP-3,4-MDBP]
A. 7.09

Q. Repeat for the following compound: FC(F)(F)c1cccc(N2CCN(Cc3cccc4c3OCO4)CC2)c1 [Compound 2, 3-TFMPP-2,3-MDBP]
A. 6.69

Q. Now the same for FC(F)(F)c1ccccc1N1CCN(Cc2cccc3c2OCO3)CC1 [Compound 1, 2-TFMPP-2,3-MDBP]
A. 7.13
